Taken from paper PMC7112044.

biological target: UniProt P0C6X7; assay: biochemical; type: biochemical, SARS-CoV; settings: pH 7, read-out: Inhibition (100 μM)
Response key: Y means inhibition at 100 µM >= 30%; N means inhibition at 100 µM < 30%.

For this compound, is measured inhibition at 100 µM 30% or higher? O=C(c1cccs1)C(F)(F)c1cccnc1 [Compound 7]
Y

And O=C(c1ccco1)C(F)c1cccc(Cl)c1 (stereo not shown) [Compound 12b] ?
N

And O=C(Cc1cncc(Br)c1)c1cc(-c2ccc(Cl)cc2)on1 [Compound 28] ?
Y

And O=C(c1cccs1)C(F)c1cccnc1 (stereo not shown) [Compound 6] ?
N

And O=C(c1ccco1)C(F)(F)c1cncc(Cl)c1 [Compound 13a] ?
N

And O=C(c1ccco1)C(F)c1cncc(Cl)c1 (stereo not shown) [Compound 12a] ?
N

And O=C(c1ccco1)C(F)(F)c1cccc(Cl)c1 [Compound 13b] ?
N
